Listing: Test C disease control rating (wheat powdery mildew) of selected molecules
Test system: Blumeria graminis f. sp. tritici
Assay: Test C: wheat powdery mildew, preventive spray on wheat seedlings
Format: in vivo
Conditions: 50 ppm, rated after 8 days, 100 = 100% disease control, 0 = no control
From the text: General protocol for preparing test suspensions for Tests A-F: the test compounds were first dissolved in acetone in an amount equal to 3% of the final volume and then suspended at the desired concentration (in ppm) in acetone and purified water (50/50 mix by volume) containing 250 ppm of the surfactant PEG400 (polyhydric alcohol esters). The resulting test suspensions were then used in Tests A-F. The test suspension was sprayed to the point of run-off on wheat seedlings. […]
Hi! Could you send only the number? It should be in %, unit omitted.

# Smiles representation, Obs value
records = [
    ("COc1cc(Cl)c(Nc2c(-c3ccc(F)cc3Cl)c(C)nn2C)c([N+](=O)[O-])c1", 97),
    ("COc1ccc(Nc2c(-c3c(F)cc(F)cc3Br)c(C)nn2C)c([N+](=O)[O-])c1", 98),
    ("COc1ccc(Nc2c(-c3ccc(C#N)cc3Cl)c(C)nn2C)c([N+](=O)[O-])c1", 99),
    ("COc1ccc(-c2c(C)nn(C)c2Nc2c(F)cccc2[N+](=O)[O-])c(Cl)c1", 91),
    ("CCn1nc(C)c(-c2ccc(F)cc2Cl)c1Nc1c(F)cccc1[N+](=O)[O-]", 99),
    ("Cc1nn(C)c(Nc2c(Cl)cc(Cl)cc2[N+](=O)[O-])c1-c1ccc(F)cc1Br", 98),
]

Now take the following molecule into account.
The reported Test C disease control rating (wheat powdery mildew) of the molecule `Cc1ccc(Nc2c(-c3c(F)cc(F)cc3Cl)c(C)nn2C)c([N+](=O)[O-])c1` was 98

* * *

Test system: Blumeria graminis f. sp. tritici
Experiment: Test C: wheat powdery mildew, preventive spray on wheat seedlings
Assay type: in vivo
Conditions: 50 ppm, rated after 8 days, 100 = 100% disease control, 0 = no control
Listing: Test C disease control rating (wheat powdery mildew) of selected compounds
Hi! Could you send only the number? It should be in %, unit omitted.

Some entries whose results are on file:
# Smiles representation, Unit symbol, Obs value
rows = [
    ("COc1cc(F)c(-c2c(C)nn(C)c2Nc2c(C)cccc2[N+](=O)[O-])c(F)c1", "%", 99),
    ("Cc1nn(C)c(Nc2ccccc2[N+](=O)[O-])c1-c1ccc(F)cc1Br", "%", 76),
    ("CCc1nn(C)c(Nc2c(Cl)cc(C)cc2[N+](=O)[O-])c1-c1ccc(F)cc1F", "%", 98),
]

Now take the following compound into account.
Record `Cc1nn(C)c(Nc2ccccc2[N+](=O)[O-])c1-c1c(F)cc(Cl)cc1F` / Blumeria graminis f. sp. tritici, Test C disease control rating (wheat powdery mildew) recorded as 97

* * *

Listing: pest or weed control at 10 ppm of selected molecules
System: Blumeria graminis f. sp. tritici
Assay: Test C: wheat powdery mildew, preventive spray on wheat seedlings
Format: in vivo
Conditions: Blumeria graminis, 192 h, 10 ppm, rated after 8 days, 100 = 100% disease control, 0 = no control, read-out: Test C disease control rating (wheat powdery mildew)
Hi! Could you send only the number? It should be in %, unit omitted.

The reported pest or weed control at 10 ppm of the molecule `Cc1nn(C)c(Nc2c(F)cccc2[N+](=O)[O-])c1-c1ccc(F)cc1F` was 27
